system: BaF3 WT; experiment: In vitro cell proliferation assay (MTT); type: cell-based; conditions: Mus musculus, BaF3, 72 h
readout type: EC50

Qu. Recorded EC50 for COC(=O)c1cc2cc(NCc3cc(NC(=O)c4ccc(CN5CCN(C)CC5)c(C(F)(F)F)c4)ccc3C)cnc2[nH]1 , please?
Ans. ≤ 100 nM

* * *

target: BRAF (Homo sapiens, UniProt P15056); construct: purchased Invitrogen; assay: In vitro kinase assay (Z′-LYTE); assay type: biochemical; conditions: compound 100 nM; ATP 100 μM; read-out: % of inhibition of the kinase compared to the control
Sequence (P15056 whole entry): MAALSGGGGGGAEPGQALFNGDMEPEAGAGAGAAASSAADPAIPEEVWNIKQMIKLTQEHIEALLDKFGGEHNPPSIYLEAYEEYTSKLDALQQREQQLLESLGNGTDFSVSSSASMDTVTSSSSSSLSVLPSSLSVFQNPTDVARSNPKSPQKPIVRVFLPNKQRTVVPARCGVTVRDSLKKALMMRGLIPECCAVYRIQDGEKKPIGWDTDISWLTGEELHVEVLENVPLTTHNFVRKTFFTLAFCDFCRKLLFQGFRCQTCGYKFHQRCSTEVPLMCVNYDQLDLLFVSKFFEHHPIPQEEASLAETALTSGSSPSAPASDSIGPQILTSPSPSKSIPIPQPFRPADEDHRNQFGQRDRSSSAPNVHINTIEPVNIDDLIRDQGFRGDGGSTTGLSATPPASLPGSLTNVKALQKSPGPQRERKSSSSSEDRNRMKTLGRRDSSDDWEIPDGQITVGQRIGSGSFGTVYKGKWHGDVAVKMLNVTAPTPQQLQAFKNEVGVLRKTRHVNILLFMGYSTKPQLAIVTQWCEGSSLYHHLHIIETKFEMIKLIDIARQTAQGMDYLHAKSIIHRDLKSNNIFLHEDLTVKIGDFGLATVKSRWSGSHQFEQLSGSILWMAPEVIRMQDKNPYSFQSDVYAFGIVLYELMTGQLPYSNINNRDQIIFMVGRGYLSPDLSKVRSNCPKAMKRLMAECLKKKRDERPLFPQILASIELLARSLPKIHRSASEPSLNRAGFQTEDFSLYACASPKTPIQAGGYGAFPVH
readout type: inhibition at 0.1 µM

# example entries with known answers
- molecular string: "COC(=O)c1cc2cc(NCc3cc(NC(=S)Nc4cccc(C(F)(F)F)c4)ccc3C)cnc2[nH]1"
  system name: "BRAF (Homo sapiens, UniProt P15056)"
  inhibition at 0.1 µM: "< 50%"
- molecular string: "COC(=O)c1cc2cc(NCc3cc(NC(=O)c4ccc(C(F)(F)F)nc4)ccc3C)cnc2[nH]1"
  system name: "BRAF (Homo sapiens, UniProt P15056)"
  inhibition at 0.1 µM: "≥ 50%"
- molecular string: "COC(=O)c1cc2cc(NCc3cc(NC(=O)c4ccc5c(c4)OCO5)ccc3C)cnc2[nH]1"
  system name: "BRAF (Homo sapiens, UniProt P15056)"
  inhibition at 0.1 µM: "≥ 50%"

Could you now look at the following compound, please?
Qu. Entry COC(=O)c1cc2cc(NCc3cc(NC(=O)c4ccc(CN5CCC(O)CC5)c(C(F)(F)F)c4)ccc3C)cnc2[nH]1 , system BRAF (Homo sapiens, UniProt P15056): what inhibition at 0.1 µM was measured?
Ans. < 50%
